As shown below, each of these compounds has a reported Ratio IC50 value.
testSystem: MMP-2/MMP-13 (Homo sapiens) (UniProt P08253+P45452)
Sequence (P08253 whole entry, looked up, other chains not shown): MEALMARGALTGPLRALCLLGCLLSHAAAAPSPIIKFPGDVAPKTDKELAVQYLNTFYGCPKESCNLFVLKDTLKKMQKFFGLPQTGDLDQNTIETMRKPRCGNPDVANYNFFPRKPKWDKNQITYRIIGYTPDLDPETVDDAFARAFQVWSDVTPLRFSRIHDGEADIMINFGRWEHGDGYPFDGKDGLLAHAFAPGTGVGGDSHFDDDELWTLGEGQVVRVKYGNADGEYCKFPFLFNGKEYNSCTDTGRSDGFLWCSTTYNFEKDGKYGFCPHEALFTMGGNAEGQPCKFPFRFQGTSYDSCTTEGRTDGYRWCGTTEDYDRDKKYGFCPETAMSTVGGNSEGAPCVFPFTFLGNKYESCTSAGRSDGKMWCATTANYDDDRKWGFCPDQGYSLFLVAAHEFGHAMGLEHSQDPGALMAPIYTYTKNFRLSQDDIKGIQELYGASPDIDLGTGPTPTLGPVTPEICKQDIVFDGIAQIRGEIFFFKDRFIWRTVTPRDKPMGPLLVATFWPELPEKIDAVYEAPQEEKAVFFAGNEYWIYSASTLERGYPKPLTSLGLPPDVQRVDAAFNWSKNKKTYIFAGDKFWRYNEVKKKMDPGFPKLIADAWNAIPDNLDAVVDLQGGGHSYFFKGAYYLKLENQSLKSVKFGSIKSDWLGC
testName: Selectivity ratio of IC50 for recombinant human MMP13 to IC50 for recombinant human MMP2
Assay type: protein assay

structureAsSmiles	testSystem	Ratio IC50
CC[C@H](C)[C@@H](C(=O)N1CCC[C@H]1CC(N)=O)N(C)C(=O)[C@H](CC(C)C)NC(=O)[C@H](CCN)NC(=O)CC[C@@H](NS(=O)(=O)c1ccc(NC(=O)c2ccccc2)cc1)C(=O)O	MMP-2/MMP-13 (Homo sapiens) (UniProt P08253+P45452)	850
CC[C@H](C)[C@@H](C(=O)NCCCCCC(N)=O)N(C)C(=O)[C@H](CC(C)C)NC(=O)[C@H](CCN)NC(=O)CC[C@@H](NS(=O)(=O)c1ccc(NC(=O)c2ccc(Cl)cc2)cc1)C(=O)O	MMP-2/MMP-13 (Homo sapiens) (UniProt P08253+P45452)	2800
CC[C@H](C)[C@@H](C(=O)NCCCCC(N)=O)N(C)C(=O)[C@H](CC(C)C)NC(=O)[C@H](CCN)NC(=O)CC[C@@H](NS(=O)(=O)c1ccc(NC(=O)c2ccc(C(N)=O)cc2)cc1)C(=O)O	MMP-2/MMP-13 (Homo sapiens) (UniProt P08253+P45452)	3100
